// reported percent inhibition of viability per item
- Test system: normal NK cells expanded with K562-aAPC
- PROTOCOL SUMMARY: percent inhibition of viability; higher = more inhibition
- ASSAY CONTEXT: 72 h; IL-2 2.5 ng/mL; 100 nM

[
  {
    "COMPOUND": "CCCOc1ccn2c(C(C)=O)cc(-c3ccccc3S(C)(=O)=O)c2c1 [GSK2801] (max concentration tested 10000 nM)",
    "MEASUREMENT UNIT": "%",
    "percent inhibition of viability": -3.92
  },
  {
    "COMPOUND": "O=c1cc(N2CCOCC2)oc2c(-c3ccccc3)cccc12 (max concentration tested 100000 nM)",
    "MEASUREMENT UNIT": "%",
    "percent inhibition of viability": -3.41
  },
  {
    "COMPOUND": "CCN(CC)C(=S)SSC(=S)N(CC)CC [Disulfiram] (max concentration tested 100000 nM)",
    "MEASUREMENT UNIT": "%",
    "percent inhibition of viability": 1.75
  },
  {
    "COMPOUND": "O=C(Nc1cccc(Cl)c1)Nc1ncc(CCNc2ncnc3ccsc23)s1 [SNS-314] (max concentration tested 1000 nM)",
    "MEASUREMENT UNIT": "%",
    "percent inhibition of viability": 43.3
  },
  {
    "COMPOUND": "COc1cccc2c1C(=O)c1c(O)c3c(c(O)c1C2=O)C[C@@](O)(C(C)=O)C[C@@H]3O[C@H]1C[C@H](N)[C@H](O)[C@H](C)O1 [Daunorubicin] (max concentration tested 1000 nM)",
    "MEASUREMENT UNIT": "%",
    "percent inhibition of viability": 77.3
  },
  {
    "COMPOUND": "CNC(=O)c1cccc2cc(Oc3ccnc4cc(OCC5(N)CC5)c(OC)cc34)ccc12 [Lucitanib] (max concentration tested 10000 nM)",
    "MEASUREMENT UNIT": "%",
    "percent inhibition of viability": -3.52
  },
  {
    "COMPOUND": "Cn1c(=O)c(F)c(Nc2ccc(I)cc2F)c2c(=O)n(C[C@@H](O)CO)cnc21 [TAK-733] (max concentration tested 1000 nM)",
    "MEASUREMENT UNIT": "%",
    "percent inhibition of viability": 3.7
  }
]

* * *

- Tested on: IMC-1 (IL-2 20 ng/mL)
- PROTOCOL SUMMARY: relative IC50 (inflection point of fitted viability curve, relative to fitted max inhibition); higher = less sensitive
- ASSAY CONTEXT: 72 h

[
  {
    "MOLECULE": "O=C(c1ccc(/C=C/c2n[nH]c3ccccc23)cc1)N1CCNCC1 [KW-2449]",
    "relative IC50": "> 2500 nM"
  },
  {
    "MOLECULE": "COc1cc(Nc2ncc(F)c(Nc3ccc4c(n3)NC(=O)C(C)(C)O4)n2)cc(OC)c1OC [Tamatinib]",
    "relative IC50": "4100 nM"
  },
  {
    "MOLECULE": "COC(=O)c1ccc2c(c1)NC(=O)/C2=C(\\Nc1ccc(N(C)C(=O)CN2CCN(C)CC2)cc1)c1ccccc1 [Nintedanib]",
    "relative IC50": "3980 nM"
  },
  {
    "MOLECULE": "O=c1[nH]c(=O)n([C@H]2C[C@H](O)[C@@H](CO)O2)cc1F [Floxuridine]",
    "relative IC50": "128 nM"
  },
  {
    "MOLECULE": "CN1CC[C@H](c2c(O)cc(O)c3c(=O)cc(-c4ccccc4Cl)oc23)[C@H](O)C1 [Alvocidib]",
    "relative IC50": "410 nM"
  },
  {
    "MOLECULE": "CC(=O)NCC(=O)N1[C@@H]2CC[C@H]1c1ccc(Nc3ncc(C(F)(F)F)c(NC4CCC4)n3)cc12",
    "relative IC50": "91.9 nM"
  }
]

This collection of values is drawn from the supplement of paper PMC5908809.
